biological target: Man(a1-3)[Man(a1-6)]Man(b1-4)GlcNAc(b1-4)GlcNAc; experiment: glycan array binding signal (z-score within array); higher = stronger binding; conditions: glycan notation: IUPAC condensed, linker removed
The entries come from a sample that favours the strongest signals as a whole.
Binary classification by glycan array binding signal (z-score), with 4 as an inclusive lower bound for class 1; all other cases are class 0.

Worked set:
OrysaEULS2 (Oryza sativa) (protein) MVYCRANPNYAMTARNGAVVLAPANPKDEYQHWIKDMRWSTSIKDEEGYPAFALVNKATGQAIKHSLGQSHPVRLVPYNPEVMDESVLWTESRDVGNGFRCIRMVNNIYLNFDAFHGDKYHGGVRDGTDIVLWKWCEGDNQRWKIQPYYILEQKLISEEDLNSAVDHHHHHH	class 1
Arath Fbox (Arabidopsis thaliana), NP_178341.1 (protein) EFTWGRKRRVKSESSPFDSFPEDCISYIISFTNPRDACVAATVSKTFESTVKSDIIWEKFLPADYESLIPPSRVFSSKKELYFSLCNDPVLFDDDKKSVWLEKASGKRCLMLSAMNLSIIWGDNPQYWQWIPIPESRFEKVAKLRDVCWFEIRGRTNTRVLSPRTRYSAYIVFKGVDKCYGFQNVAIEAAVGVVGQEPSRRLICFSEAIRRGRRNVVKPKQREDGWMEIELGEFFNDGGIMDNDEIEMSALETKQLNRKCGLIIQGIEIRPAKILAAAAASFLEQKLISEEDLNSAVDHHHHHH	class 0
PhypaEULS3 (Physcomitrella patens) (protein) MLPVRLHCKADPNFNLAAVPGQGPVMVPFSPNDDFQVWYKDVTMSTRVKDETGSSAFSLINKATGQALRHAPEDLAQCLLADYDSNALDQTVLWTMSEDMGQGYCCIRLASQITRNLDVFRGDKKSGGVKEGSPVITFAWKKQDNQIWKMITAILEQKLISEEDLNSAVDHHHHHH	class 0
DC-ASGPR S+GEE (Homo sapiens) (protein) MTRTYENFQYLENKVKVQGFKNGPLPLQSLLQRLRSGPCHLLLSLGLGLLLLVIICVVGFQNSKFQRDLVTLRTDFSNFTSNTVAEIQALTSQGSSLEETIASLKAEVEGFKQERQAVHSEMLLRVQQLVQDLKKLTCQVATINNNGEEASTEGTCCPVNWVEHQDSCYWFSHSGMSWAEAEKYCQLKNAHLVVINSREEQNFVQKYLGSAYTWMGLSDPEGAWKWVDGTDYATGFQNWKPGQPDDWQGHGLGGGEDCAHFHPDGRWNDDVCQRPYHWVCEAGLGQTSQESH	class 0
Gal 12 (Homo sapiens), Q96DT0 (protein) MSQPSGGRAPGTRIYSWSCPTVMSPGEKLDPIPDSFILQPPVFHPVVPYVTTIFGGLHAGKMVMLQGVVPLDAHRFQVDFQCGCSLCPRPDIAFHFNPRFHTTKPHVICNTLHGGRWQREARWPHLALRRGSSFLILFLFGNEEVKVSVNGQHFLHFRYRLPLSHVDTLGIFGDILVEAVGFLNINPFVEGSREYPAGHPFLLMSPRLEVPCSHALPQGLSPGQVIIVRGLVLQEPKHFTVSLRDQAAHAPVTLRASFADRTLAWISRWGQKKLISAPFLFYPQRFFEVLLLFQEGGLKLALNGQGLGATSMNQQALEQLRELRISGSVQLYCVHS	class 0
UDA (Urtica dioica), P11218 (protein) MMMRFLSAVVIMSSAMAVGLVSAQRCGSQGGGGTCPALWCCSIWGWCGDSEPYCGRTCENKCWSGERSDHRCGAAVGNPPCGQDRCCSVHGWCGGGNDYCSGSKCQYRCSSSVRGPRVALSGNSTANSIGNVVVTEPLFDQMFSHRKDCPSQGFYSYHSFLVAAESFPAFGTIGDVATRKREVAAFLAHISQATSGERSDVENPHAWGLCHINTTTVTENDFCTSSDWPCAAGKKYSPRGPIQLTHNFNYGLAGQAIGEDLIQNPDLVEKDPIISFKTALWFWMSQHDNKPSCHDIVLNANSAANRIPNKGVIGNIISRAFGHDDFAVRSSSIGFYKRYCDMLGVSYGHDLKYWFDNTPSSEFQRIQMRVAA	class 1

-- ask Could you verify whether the entry Morniga (Morus nigra) (protein) MAGTSTNTQTTGTSQTVEVGLWGGPGGNAWDDGSYTGIREINLSHGDAIGAFSVIYDLNGQPFTGPTHPGNEPSFKTVKITLDFPNEFLVSVSGYTGVLPRLATGKDVIRSLTFKTNKKTYGPYGKEEGTPFSLPIENGLIVGFKGRSGFVVDAIGVHLS shows glycan array binding signal (z-score) of no less than 4?
-- reply class 1

-- ask Could you verify whether the entry EULS2 M1 (Oryza sativa) (protein) MVYCRANPNYAMTARNGAVVLAPANPKDEYQHWIKDMRWSTSIKDEEGYPAFALVNKATGQAIKHSLGQSHPVRLVPYNPEVMDESVLWTESRDVGNGFRCIRMVNNIYLNFDAFHGDKYHGGVRDGTDIVLWKLCEGDNQRWKIQPYYILEQKLISEEDLNSAVDHHHHHH shows glycan array binding signal (z-score) of no less than 4?
-- reply class 0

-- ask Could you verify whether the entry Codakine (Codakia orbicularis), Q3KVL7_9BIVA (protein) MKILVAVFLVLVVVGTAAAGCPDGWTQFLDLCYIYQSAKASWASAQSSCQALGGILAEPDTACENEVLIHMCRENGDAGSFGPWLGGQKVGGAWQWSSSGAAFDYLRWGPNEPNNSGGNEDCLHYNWLSWNDLRCHYQASYLCQRAAE shows glycan array binding signal (z-score) of no less than 4?
-- reply class 1
